Test system: Human immunodeficiency virus
protocol summary: Antiviral activity agaisnt HIV BAL infected in human PM1 cells assessed as inhibition of viral replication
Assay type: functional, organism-based
conditions: Human immunodeficiency virus 1, BAL
# strict inequality: IC90 < 2 nM yields met, everything else yields not met

>>> df
                                   compound    class
0  Cc1nnc(C(C)C)n1[C@H]1C[C@H]2CC[C@@H](C1)N2CC[C@H](NC(=O)C1CCC(F)(F)CC1)c1ccccc1 [MARAVIROC]      met
1  Cc1nnc(C(C)C)n1C1CC2CCC(C1)N2CC[C@H](NC(=O)C1CCCC1)c1ccccc1 (stereo partly specified)      met
2  Cc1nnc(C(C)C)n1C1CC2CCC(C1)N2CC[C@H](NC(=O)C1CCOCC1)c1ccccc1 (stereo partly specified)  not met
3  Cc1nc2ccccc2n1C1C[C@H]2CC[C@@H](C1)N2CC[C@H](NC(=O)C1CCC1)c1ccccc1 (stereo partly specified)  not met
4  Cc1nnc(C(C)C)n1C1CC2CCC(C1)N2CC[C@H](NC(=O)C1CCC1)c1ccccc1 (stereo partly specified)  not met
5  Cc1nnc(C(C)C)n1C1CC2CCC(C1)N2CC[C@H](NC(=O)CCC(F)(F)F)c1ccccc1 (stereo partly specified)  not met

* * *

protocol summary: Binding affinity to HIV protease assessed as inhibition constant
Design: species or system Human immunodeficiency virus
property name: Ki (nM)

>>> print(df.to_string())
                                chem_smiles  quantitative_readout
0  CCC[C@@]1(CCc2ccccc2)CC(O)=C([C@H](CC)c2cccc(NS(=O)(=O)c3ccc(C(F)(F)F)cn3)c2)C(=O)O1                     8

* * *

Here, each record is paired with measured CC50 data.
protocol summary: Cytotoxicity against human CEM cells
Assay type: toxicity, cell-based
conditions: CEM cells (CCRF-CEM)
property name: CC50 (µM)

In [3]: df
Out[3]:
                                   compound  relation_sign  quantitative_readout
0       Nc1ccn([C@@H]2CS[C@H](CO)O2)c(=O)n1              >                   100
1       Nc1ccn([C@H]2CS[C@@H](CO)O2)c(=O)n1              =                   2.7
2  Nc1ccn([C@H]2CSC(CO)O2)c(=O)n1 (mixture of isomers)              =                  52.6

* * *

assay target: C-C chemokine receptor type 5 (Homo sapiens, UniProt P51681)
Sequence (P51681 whole entry): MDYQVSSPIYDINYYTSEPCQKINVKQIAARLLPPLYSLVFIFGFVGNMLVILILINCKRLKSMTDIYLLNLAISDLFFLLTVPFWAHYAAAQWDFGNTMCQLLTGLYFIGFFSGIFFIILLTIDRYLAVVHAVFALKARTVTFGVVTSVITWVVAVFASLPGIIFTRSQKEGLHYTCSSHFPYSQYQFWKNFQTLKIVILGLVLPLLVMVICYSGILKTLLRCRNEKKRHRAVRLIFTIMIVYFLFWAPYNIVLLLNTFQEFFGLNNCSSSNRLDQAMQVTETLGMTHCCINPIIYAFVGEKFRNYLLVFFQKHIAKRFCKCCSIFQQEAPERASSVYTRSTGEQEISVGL
protocol summary: Displacement of [125I]MIP-1alpha from CCR5 receptor (unknown origin) expressed in HEK293 cells
property name: IC50 (nM)

>>> df
                                   compound  property_name  quantitative_readout
0  Cc1nc2ccccc2n1C1CCN(CC[C@@H](NC(=O)c2ccccc2)c2ccccc2)CC1           IC50                   580
1  Cc1nc2ccccc2n1C1CCN(CCC(NC(=O)c2ccccc2)c2ccccc2)CC1 (centres undefined)           IC50                    45
2  Cc1nc2ccccc2n1C1CCN(CC[C@H](NC(=O)c2ccccc2)c2ccccc2)CC1           IC50                    13
3  Cc1nc2ccccc2n1C1CCN(CCC(c2ccccc2)c2ccccc2)CC1           IC50                     4

* * *

protocol summary: Inhibition of HIV-1 integrase by multiple well plate integration assay
Set-up: species or system Human immunodeficiency virus
pIC50: −log10 of the molar value.
property name: pIC50

>>> print(df.to_string())
                                   compound  property_name  quantitative_readout
0  O=C(O)/C(O)=C/C(=O)C1C=Nc2ccc(Cl)cc21 (stereo unspecified)          pIC50                  5.64

* * *

Tested on: Human immunodeficiency virus 1
protocol summary: Antiviral activity HIV-1 infected in HEK293T cells assessed as inhibition of late stage viral replication
Assay type: functional, organism-based
conditions: Human immunodeficiency virus 1, HEK-293T
pIC50: −log10 of the molar value.

chem smiles	pIC50
CC(C)(C#Cc1ccc(-c2ccc(Cl)c3c(NS(C)(=O)=O)nn(CC(F)(F)F)c23)c([C@H](Cc2cc(F)cc(F)c2)NC(=O)Cn2nc(C(F)(F)F)c3c2C(F)(F)[C@@H]2C[C@H]32)n1)S(C)(=O)=O	9.50

* * *

assay target: Human immunodeficiency virus type 1 Gag protein (Human immunodeficiency virus 1)
pKd: −log10 of the molar value.

chem smiles	pKd
CC(C)(C#Cc1ccc(-c2ccc(Cl)c3c(NS(C)(=O)=O)nn(CC(F)(F)F)c23)c([C@H](Cc2cc(F)cc(F)c2)NC(=O)Cn2nc(C(F)(F)F)c3c2C(F)(F)[C@@H]2C[C@H]32)n1)S(C)(=O)=O	8.96
CC(C)(C#Cc1ccc(-c2ccc(Cl)c3c(NS(=O)(=O)C4CC4)nn(CC(F)F)c23)c([C@H](Cc2cc(F)cc(F)c2)NC(=O)Cn2nc(C(F)(F)F)c3c2C(F)(F)[C@@H]2C[C@H]32)n1)S(C)(=O)=O	8.62

* * *

Recorded IC50 by entry
Tested on: Human immunodeficiency virus 1
protocol summary: Antiviral activity against HIV-1 infected in human PBMC
Type: functional, organism-based
conditions: Human immunodeficiency virus 1, PBMC

chem smiles	unit text	IC50
CC(C)(C#Cc1ccc(-c2ccc(Cl)c3c(NS(C)(=O)=O)nn(CC(F)(F)F)c23)c([C@H](Cc2cc(F)cc(F)c2)NC(=O)Cn2nc(C(F)(F)F)c3c2C(F)(F)[C@@H]2C[C@H]32)n1)S(C)(=O)=O	nM	0.05
CC(C)(C#Cc1ccc(-c2ccc(Cl)c3c(NS(=O)(=O)C4CC4)nn(CC(F)F)c23)c([C@H](Cc2cc(F)cc(F)c2)NC(=O)Cn2nc(C(F)(F)F)c3c2C(F)(F)[C@@H]2C[C@H]32)n1)S(C)(=O)=O	nM	0.13

* * *

assay target: Human immunodeficiency virus type 1 protease (Human immunodeficiency virus 1)
protocol summary: Inhibition of HIV-1 protease
property name: Ki (nM)

                                chem_smiles  unit_text  quantitative_readout
0  CCC[C@]1(CCc2ccccc2)CC(O)=C([C@H](CC)c2cccc(NS(=O)(=O)c3ccc(C#N)cn3)c2)C(=O)O1         nM                  0.04
1  CCC[C@]1(CCc2ccccc2)CC(O)=C([C@@H](CC)c2cccc(NS(=O)(=O)c3ccc(C#N)cn3)c2)C(=O)O1         nM                  0.12
2  CCC[C@@]1(CCc2ccccc2)CC(O)=C([C@@H](CC)c2cccc(NS(=O)(=O)c3ccc(C#N)cn3)c2)C(=O)O1         nM                   0.1

* * *

Below, each entry is listed alongside its reported IC50.
protocol summary: Inhibition of HIV integrase
Set-up: species or system Human immunodeficiency virus
property name: IC50 (nM)

                                   compound  property_name  unit_text  quantitative_readout
0  C[C@@H]1CCO[C@H]2Cn3cc(C(=O)NCc4ccc(F)cc4F)c(=O)c(O)c3C(=O)N12 [DOLUTEGRAVIR]           IC50         nM                   2.7
1  O=C(/C=C(\O)c1nc[nH]n1)c1ccc(Cc2ccc(F)cc2)o1 [S-1360]           IC50         nM                    20

* * *

Entries and their IC50 values follow.
Tested on: Human immunodeficiency virus 1
protocol summary: Antiviral activity against HIV-1 LAV infected in human CEM cells
Type: functional, organism-based
conditions: Human immunodeficiency virus 1, LAV, CCRF-CEM
property name: IC50 (µM)

                                   molecule                    assay_target  property_name  quantitative_readout
0  Nc1nc(=O)n(C2CSC(CO)O2)cc1F (racemic) [EMTRICITABINE, (+/-)-]  Human immunodeficiency virus 1           IC50                  0.08
1       Nc1ccn([C@H]2CS[C@@H](CO)O2)c(=O)n1  Human immunodeficiency virus 1           IC50                   0.1
2  Nc1ccn([C@@H]2CS[C@H](CO)O2)c(=O)n1 [LAMIVUDINE]  Human immunodeficiency virus 1           IC50                  0.07
3  Nc1ccn([C@H]2CSC(CO)O2)c(=O)n1 (mixture of isomers)  Human immunodeficiency virus 1           IC50                  0.07
